Assay read-out pKi on Alpha-1D adrenergic receptor (Homo sapiens); records merged from the literature.
Sequence (P25100 whole entry): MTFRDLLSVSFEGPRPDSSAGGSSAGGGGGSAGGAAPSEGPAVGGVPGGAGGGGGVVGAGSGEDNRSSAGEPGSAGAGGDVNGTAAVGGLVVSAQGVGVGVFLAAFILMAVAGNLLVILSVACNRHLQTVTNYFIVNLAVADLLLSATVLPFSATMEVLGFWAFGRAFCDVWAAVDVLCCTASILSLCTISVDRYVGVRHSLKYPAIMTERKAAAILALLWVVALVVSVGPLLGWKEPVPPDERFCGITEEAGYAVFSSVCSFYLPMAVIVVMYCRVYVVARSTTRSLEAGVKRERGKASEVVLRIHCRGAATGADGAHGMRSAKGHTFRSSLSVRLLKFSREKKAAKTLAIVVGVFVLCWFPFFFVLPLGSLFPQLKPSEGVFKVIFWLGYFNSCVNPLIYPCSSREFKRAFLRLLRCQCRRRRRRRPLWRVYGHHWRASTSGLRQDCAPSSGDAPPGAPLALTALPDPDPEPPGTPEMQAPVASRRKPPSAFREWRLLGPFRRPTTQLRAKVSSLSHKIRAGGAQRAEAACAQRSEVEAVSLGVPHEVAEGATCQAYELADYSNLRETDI
pKi field: float, defined as -log10 of concentration (mol/L).

[ask] Lookup: pKi / Alpha-1D adrenergic receptor (Homo sapiens) / "O=S(=O)(N[C@H]1CC[C@@H](N2CCN(c3ccccc3OCC3CC3)CC2)CC1)c1cc(Cl)ccc1F"
[reply] 7.36

[ask] Lookup: pKi / Alpha-1D adrenergic receptor (Homo sapiens) / "O=C1CC2(CCCCC2)CC(=O)N1CCN1CCN(c2cc(Cl)ccc2Cl)CC1"
[reply] 8.66

[ask] Lookup: pKi / Alpha-1D adrenergic receptor (Homo sapiens) / CO/C(O)=C1\C(C)=NC(C)=C(C(=O)NCCCN2CCC(c3ccccc3)CC2)C1c1ccc([N+](=O)[O-])cc1 (stereo not given)
[reply] 7.18

[ask] Lookup: pKi / Alpha-1D adrenergic receptor (Homo sapiens) / "COc1cccc(N(NC2=NCCN2)c2ccc(C)cc2)c1"
[reply] 7.76
